compounds and their reported cell count
- method.summary: inhibitors of TNFa-induced NFkB p65 translocation, primary screen, imaging, HUVEC, MLSMR starter and 10KST1 sets (AID 438);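 also: compound added about 3h40 before a 20 min TNFalpha stimulation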
- test.conditions: HUVEC TNFa-induced p65 nuclear translocation; measured here: nuclei count (cytotoxicity indicator), at 2.08 µM
Just the number, please.

• Cc1ccc2[nH]c(=O)c(C(c3nnnn3CCc3ccccc3)N3CCOCC3)cc2c1 (stereo unspecified) = 715
• COc1cccc(N2CCN(CC(=O)NCc3cccs3)CC2)c1 = 702
• Cc1nc2cc(NC(=O)N3c4ccccc4CC3C)ccc2o1 (stereo unspecified) = 574

Input line: Quick one: give measured cell count for Cc1cc(N2C(=O)CC(N3CCN(c4ccc(C(=O)c5cccs5)cc4)CC3)C2=O)no1 (stereo unspecified)
Output line: 654

Input line: Quick one: give measured cell count for Cc1ccc(Nc2nc(Oc3ccc(=O)[nH]n3)nc(N(C)C)n2)cc1
Output line: 377

Input line: Quick one: give measured cell count for CCc1nnc(NC(=O)CSc2nnc(-c3ccoc3C)n2CC(C)C)s1
Output line: 714

Input line: Quick one: give measured cell count for COCCN1C=C(C(=O)OC)C(c2cc3c(cc2Br)OCO3)C(C(=O)OC)=C1
Output line: 629

Input line: Quick one: give measured cell count for Cc1sc2nc(SCC(=O)Nc3c(C)n(C)n(-c4ccccc4)c3=O)n(C)c(=O)c2c1C
Output line: 556

Input line: Quick one: give measured cell count for CCOC(=O)N1CCN(Cc2cc(=O)oc3ccc4ccccc4c23)CC1
Output line: 472

Input line: Quick one: give measured cell count for COc1cc(CN2CCSCC2)cc(OC)c1OC
Output line: 642

Input line: Quick one: give measured cell count for CCC(C(=O)Nc1ncccn1)(C(F)(F)F)C(F)(F)F
Output line: 218
